The measured values listed here are drawn from PubChem BioAssay (EPA / NIEHS).

# test.summary: APR_HepG2_CellCycleArrest_24hr: Apredica 24-hour HepG2 Assay for Cell Cycle Arrest (AID 2282905);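 also: cell cycle arrest scored as ratio of 2N to 4N nuclear DNA content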
# assay.setup: imaging, actives raise or lower the signal
Activity calls are given as the source filed them. The calls were made as follows: active = hit-call score of the fitted dose curve at least 0.9, where 1 is the maximum; inactive = score below 0.9.
Outcome codes: active, inactive

| sample.smiles | group |
| --- | --- |
| Cc1ccc(C)c(C)c1 | inactive |
| O=C(OCCCCCOC(=O)c1ccccc1)c1ccccc1 | inactive |
| O=c1c(O)c(-c2ccc(O)c(O)c2)oc2cc(O)cc(O)c12 | active |
| O=C(N[C@@H](Cc1ccccc1)[C@@H](O)C(=O)N1C[C@@H](O)[C@@H](O)C1)c1cc2cc(Cl)ccc2[nH]1 | inactive |
| c1cc(-c2ccncc2)ccn1 | inactive |
| Cc1c(C(=O)O)c(O)cc2c1C(=O)c1c(O)c([C@@H]3O[C@H](CO)[C@@H](O)[C@H](O)[C@H]3O)c(O)c(O)c1C2=O | inactive |
| Cc1ccc2ncccc2c1 | inactive |
| COc1ccc(C)cc1N | inactive |
| Cc1nc(C)nc(N2C[C@@H](C)N(c3ccnc([C@@H](C)O)n3)[C@@H](C)C2)n1 | inactive |
| FC(F)(F)C(F)(F)C(F)(F)C(F)(F)C(F)(F)C(F)(F)CCI | inactive |
| C=CCOC(=O)c1ccccc1C(=O)OCC=C | inactive |

###

# Read-out: Vascular cell adhesion molecule 1 (VCAM1), VCAM1 (gene 7412)
# test.summary: BSK_CASM3C_VCAM1: BioMAP Diversity Plus: CASM3C Assay for Vascular cell adhesion molecule 1 (VCAM1) Biomarker Activity (AID 2283055);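 also: VCAM-1 protein level quantified by ELISA on the cells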
# assay.setup: primary human coronary artery smooth muscle cells; actives raise or lower the signal
Active and inactive are the calls of the source. How the source made its calls: active means hit-call score of the fitted dose curve at least 0.9, where 1 is the maximum; inactive means score below 0.9.
Outcome codes: active, inactive

| molecule | group |
| --- | --- |
| CCCCCCCCCCCCCO | active |
| NC(=O)Cn1c(=O)cc(CCN2CCN(c3nccc4sccc34)CC2)c2ccc(F)cc21 | inactive |
| O=[N+]([O-])C(CO)(CO)CO | inactive |
| CC=Cc1ccc(O)c(OC)c1 | inactive |
| COc1ccc(S(=O)(=O)N2C(=O)[C@@](c3ccccc3OC)(N3C[C@H](O)C[C@H]3C(=O)N(C)C)c3cc(Cl)ccc32)c(OC)c1 | inactive |
| CCCCOC(=O)CCCCCCCCC(=O)OCCCC | inactive |
| CCCCC(CC)COC(=O)CC(C(=O)OCC(CC)CCCC)S(=O)(=O)O (stereo not given) | inactive |
| CNCc1cc(F)ccc1Oc1ccc(Cl)c(Cl)c1 | inactive |
| COc1ccc(C)cc1N | inactive |
| O=C(OCCCCCOC(=O)c1ccccc1)c1ccccc1 | inactive |
| COc1cc(C=O)ccc1O | inactive |
| Cc1ccc(Cl)cc1 | inactive |
| O=C(O)Cc1ccccc1Nc1c(Cl)cccc1Cl | inactive |
| CCCCCCCCCCCC(=O)OC | inactive |
| CCOc1ccc2c(c1)C(C)=CC(C)(C)N2 | inactive |
| COc1ccc2c(c1)c(CC(=O)O)c(C)n2C(=O)c1ccc(Cl)cc1 | inactive |
| Clc1cc(Cl)c(Cl)cc1Cl | inactive |
| CCCCCCCCCCC | inactive |
| Cc1ccccc1Cl | inactive |
| Cc1cc(NC(=O)C(=O)O)cc(C)c1Oc1ccc(O)c2c1CCC2 | inactive |
| FC(F)(F)C(F)(F)C(F)(F)C(F)(F)C(F)(F)C(F)(F)CCI | inactive |
| CCc1c(C(=O)NN2CCCCC2)nn(-c2ccc(Cl)cc2Cl)c1-c1ccc(Br)cc1 | inactive |
| CCCCN(CCCC)CCCC | inactive |
| COCCOC[C@H](CC1(C(=O)NC2CCC(C(=O)O)CC2)CCCC1)C(=O)Oc1ccc2c(c1)CCC2 (stereo not given in full) | inactive |
| CC(C)c1ccc(C(=O)N=C(N)N)cc1S(C)(=O)=O | inactive |
| Nc1ccc(S(=O)(=O)c2ccc(N)cc2)cc1 | inactive |
| CC1(C)CC(N=C=O)CC(C)(CN=C=O)C1 (stereo not given) | inactive |
| O=c1c(O)c(-c2ccc(O)c(O)c2)oc2cc(O)cc(O)c12 | inactive |
| Oc1ccc2ccccc2c1N=Nc1ccccc1 | inactive |
| Cc1cccc(C)c1O | inactive |
| Cc1ccc2ncccc2c1 | inactive |
| CC(=O)C(C)=CC1C(C)=CCCC1(C)C (stereo not given) | inactive |
| CCOC(=O)C(C)(C)Oc1ccc(Cl)cc1 | inactive |
| CN1CCN(Cc2cc(-c3ccc4[nH]c(=O)oc4c3)co2)[C@@H](c2ccc(F)cc2)C1 | inactive |
| CCCCCCCCCCCCCCCCCC(=O)O | inactive |
| Cc1cccc(Nc2cc(Cl)nc(SCC(=O)O)n2)c1C | inactive |
| CN1CCCC1=O | inactive |
| Nc1ccccc1N | active |
| NCC1(Cc2noc(=O)[nH]2)CCCCC1 | inactive |
| CC(=O)OCCOCCOCCOC(C)=O | inactive |
| CNC(=O)[C@H]1O[C@@H](n2cnc3c(NCc4cc(Cl)ccc4OCc4cc(C)no4)ncnc32)[C@H](O)[C@@H]1N | inactive |
| CCCCCCCC=O | inactive |
| CC(CO)OC(C)CO (stereo not given) (tested in a mixture with another compound) | inactive |
| O=C(N[C@@H](Cc1ccccc1)[C@@H](O)C(=O)N1C[C@@H](O)[C@@H](O)C1)c1cc2cc(Cl)ccc2[nH]1 | inactive |
| Cc1c(C(=O)O)c(O)cc2c1C(=O)c1c(O)c([C@@H]3O[C@H](CO)[C@@H](O)[C@H](O)[C@H]3O)c(O)c(O)c1C2=O | inactive |

###

# test.summary: Tanguay_ZF_120hpf_ActivityScore_legacy: (Legacy) Oregon State University Tanguay Lab 120 Hour Post-fertilization zebrafish Assay Score for Activity (AID 2283742)
# Description: Tanguay_ZF_120hpf_legacy is a whole embryo, multiplexed endpoint assay using zebrafish larvae exposed for 120 hours post fertilization on a 96-well plate.Tanguay_ZF_120hpf_ActivityScore_legacy is one of one assay component(s) measured or calculated from the Tanguay_ZF_120hpf_legacy assay. […] This assay endpoint, Tanguay_ZF_120hpf_ActivityScore_legacy, was analyzed in the positive analysis fitting direction relative to DMSO as the negative control and baseline of activity. […]
Calls of active or inactive are those of the source. How the source made its calls: active means hit-call score of the fitted dose curve at least 0.9, where 1 is the maximum; inconclusive means response in the unintended direction; inactive means score below 0.9.
Outcome codes: active, inactive

| sample.smiles | group |
| --- | --- |
| CC(C)(C)c1cc(O)c(C(C)(C)C)cc1O | active |
| CCCCCCOCCO | inactive |
| Cc1ccccc1Cl | inactive |
| CCCCc1ccc2c(n1)[C@@H](c1ccc(OC)cc1C[C@H](C)C(=O)O)[C@H](C(=O)O)[C@H]2c1ccc2c(c1)OCO2 | inactive |
| OC[C@@H](O)[C@@H](O)[C@H](O)[C@H](O)CO | inactive |
| COc1ccc(C)cc1N | inactive |
| Nc1ccc(S(=O)(=O)c2ccc(N)cc2)cc1 | inactive |
| O=C(O)Cc1ccccc1Nc1c(Cl)cccc1Cl | active |
| CC(=O)OC/C=C(\C)CCC=C(C)C | inactive |
| CCOc1ccc2c(c1)C(C)=CC(C)(C)N2 | inactive |
| Cc1ccc(C)c(C)c1 | inactive |
| NS(=O)(=O)c1cc2c(cc1Cl)NCNS2(=O)=O | inactive |
| CC1(C)NC(=O)NC1=O | inactive |
| CCCCCC(=O)O | inactive |

###

# Read-out: Vascular cell adhesion molecule 1 (VCAM1), VCAM1 (gene 7412)
# test.summary: BSK_4H_VCAM1: BioMAP Diversity Plus: 4H Assay for Vascular cell adhesion molecule 1 (VCAM1) Biomarker Activity (AID 2283033);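 as to Outcome: cell-surface VCAM-1 protein measured by ELISA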
# assay.setup: primary human endothelial cells (HUVEC); actives raise or lower the signal
Activity calls are given as the source filed them. Rule for the calls: active = hit-call score of the fitted dose curve at least 0.9, where 1 is the maximum; inactive = score below 0.9.
Outcome codes: 1 = active, -1 = inactive

| compound | group |
| --- | --- |
| CNC(=O)[C@H]1O[C@@H](n2cnc3c(NCc4cc(Cl)ccc4OCc4cc(C)no4)ncnc32)[C@H](O)[C@@H]1N | -1 |
| Nc1ccc(S(=O)(=O)c2ccc(N)cc2)cc1 | -1 |
| Cc1ccc2ncccc2c1 | -1 |
| CCCc1cc(=O)[nH]c(=S)[nH]1 | -1 |
| CCCCCCCCCCC | -1 |
| Cc1ccc(C)c(C)c1 | -1 |
| CC(=O)OCCOCCOCCOC(C)=O | -1 |
| c1cc(-c2ccncc2)ccn1 | -1 |
| O=[N+]([O-])C(CO)(CO)CO | -1 |
| CCCCOC(=O)CCCCCCCCC(=O)OCCCC | -1 |
| CNCc1cc(F)ccc1Oc1ccc(Cl)c(Cl)c1 | -1 |
| CCCCCCCCCCCCCCCC | -1 |
| C1CCC(SSC2CCCCC2)CC1 | 1 |
| CC(C)c1ccc(C(=O)N=C(N)N)cc1S(C)(=O)=O | -1 |
| CCCCc1ccc2c(n1)[C@@H](c1ccc(OC)cc1C[C@H](C)C(=O)O)[C@H](C(=O)O)[C@H]2c1ccc2c(c1)OCO2 | -1 |
| CCCCCCCC=O | -1 |
| Cc1cccc(C)c1O | -1 |
| CC(CO)OC(C)CO (stereo not drawn) (tested in a mixture with another compound) | -1 |
| O=C(N[C@@H](Cc1ccccc1)[C@@H](O)C(=O)N1C[C@@H](O)[C@@H](O)C1)c1cc2cc(Cl)ccc2[nH]1 | -1 |
| Cc1nc(-c2ccc3c(c2)CCN(CCC2CCC(NC(=O)/C=C/c4ccc(F)cc4)CC2)CC3)no1 (stereo not drawn) | 1 |
| Cc1cc(=O)[nH]c(=S)[nH]1 | -1 |
| NS(=O)(=O)c1cc2c(cc1Cl)NCNS2(=O)=O | -1 |
| CCCCCCCCCCCCCCCCCC(=O)O | -1 |
| Cc1ccc(C(C)C)c(O)c1 | -1 |
| COc1ccc(S(=O)(=O)N2C(=O)[C@@](c3ccccc3OC)(N3C[C@H](O)C[C@H]3C(=O)N(C)C)c3cc(Cl)ccc32)c(OC)c1 | -1 |
| COc1cc(C=O)ccc1O | -1 |
| COc1ccc(C)cc1N | -1 |
| Cc1oc(-c2ccccc2)nc1CCOc1cccc2c1ccn2CCC(=O)O | -1 |
| CCc1c(C(=O)NN2CCCCC2)nn(-c2ccc(Cl)cc2Cl)c1-c1ccc(Br)cc1 | 1 |
| COc1cc(-c2nc(NC(=O)c3cc4cc(C)cc(C)c4n3CC(=O)O)sc2CCC2CCCCC2)c(OC)cc1Cl | 1 |
| O=C(O)Cc1ccccc1Nc1c(Cl)cccc1Cl | -1 |
| CC1=C(/C=C/C(C)=C/C=C/C(C)=C/CO)C(C)(C)CCC1 | 1 |
| CC(=O)C(C)=CC1C(C)=CCCC1(C)C (stereo not drawn) | -1 |
| O=C(O)CCCCC(=O)O | -1 |
| O=C(OCCCCCOC(=O)c1ccccc1)c1ccccc1 | -1 |
| CCOC(=O)C(C)(C)Oc1ccc(Cl)cc1 | -1 |
| CCCCCCCCCCCCCO | 1 |
| Cc1ccc(Cl)cc1 | -1 |
| Cc1ccc(C)c(O)c1C | -1 |
| CCCCN(CCCC)CCCC | -1 |
| Cc1nc(C)nc(N2C[C@@H](C)N(c3ccnc([C@@H](C)O)n3)[C@@H](C)C2)n1 | -1 |
| NC(=O)Cn1c(=O)cc(CCN2CCN(c3nccc4sccc34)CC2)c2ccc(F)cc21 | 1 |
| COc1ccc2c(c1)c(CC(=O)O)c(C)n2C(=O)c1ccc(Cl)cc1 | -1 |
| CC(=O)OC/C=C(\C)CCC=C(C)C | -1 |
| Cc1ccccc1Cl | -1 |
| Nc1nc(N)c2nc(CNc3ccc(C(=O)N[C@@H](CCC(=O)O)C(=O)O)cc3)cnc2n1 | -1 |
| Nc1ccc2c(c1)C(=O)c1ccccc1C2=O | -1 |
| COC(=O)c1ccc(O)cc1 | -1 |
| NCCO | -1 |
| Cc1cccc(Nc2cc(Cl)nc(SCC(=O)O)n2)c1C | -1 |
| CCOC(=O)CCC(=O)OCC | -1 |
| Cc1cc(NC(=O)C(=O)O)cc(C)c1Oc1ccc(O)c2c1CCC2 | -1 |
| CCCCCCC(=O)OCC | -1 |
